These data points were gathered from paper PMC10882491.

target.desc: GRK2 (Homo sapiens, UniProt P25098)
Sequence (P25098 1-689): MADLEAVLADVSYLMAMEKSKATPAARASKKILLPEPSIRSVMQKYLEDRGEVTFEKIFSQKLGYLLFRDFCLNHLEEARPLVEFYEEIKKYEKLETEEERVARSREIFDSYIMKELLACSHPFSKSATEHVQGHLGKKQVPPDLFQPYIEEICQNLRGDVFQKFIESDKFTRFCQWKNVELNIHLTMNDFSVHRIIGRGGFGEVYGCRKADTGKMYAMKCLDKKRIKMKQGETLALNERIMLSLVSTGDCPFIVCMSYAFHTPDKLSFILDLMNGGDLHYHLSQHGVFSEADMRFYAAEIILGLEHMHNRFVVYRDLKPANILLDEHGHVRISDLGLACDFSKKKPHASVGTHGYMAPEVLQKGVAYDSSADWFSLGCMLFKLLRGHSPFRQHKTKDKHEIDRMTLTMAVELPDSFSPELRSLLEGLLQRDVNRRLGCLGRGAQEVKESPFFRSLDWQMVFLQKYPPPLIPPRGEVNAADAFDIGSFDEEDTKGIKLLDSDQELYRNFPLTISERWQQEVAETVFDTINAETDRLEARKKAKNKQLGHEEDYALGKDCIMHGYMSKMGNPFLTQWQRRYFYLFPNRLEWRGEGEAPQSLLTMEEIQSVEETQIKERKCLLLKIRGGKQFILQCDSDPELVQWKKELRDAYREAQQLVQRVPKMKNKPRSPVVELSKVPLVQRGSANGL
endpoint: pIC50
In textbook form, pIC50 equals minus log to base ten of the concentration in mol/L.

Would you kindly share the measured pIC50 for `Cc1nc2ccc(CN(C)c3ccc(C(=O)N[C@@H](CCC(=O)O)C(=O)O)s3)cc2c(=O)[nH]1` ?
5.17
